B1: library; a variant is named by its letters at N, in order (parent)
chain: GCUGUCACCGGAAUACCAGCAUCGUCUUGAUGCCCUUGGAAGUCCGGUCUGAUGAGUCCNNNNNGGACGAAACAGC

Variants of: B1
Test: normalized RNA/DNA level with ligand (relative to sTRSVctl = 100) (log10 (% of sTRSVctl)); higher = less ribozyme self-cleavage, higher mRNA level
Settings: ligand concentration (+) RNA-Seq: 5 mM, HEK293T, reporter: mCherry (pCS4076), ligand present: yes
Listed here are variants together with their documented normalized RNA/DNA level with ligand (log10).
Response field accepts a number only; no unit should be typed.

Exam item: Please give the measured normalized RNA/DNA level with ligand (log10) for this variant: UACAG
Marked response: 1.96

Exam item: Consider the variant GACAG and give its measured normalized RNA/DNA level with ligand (log10).
Marked response: 1.95

Exam item: # lookup: normalized RNA/DNA level with ligand (log10) of ACCUU
Marked response: 2.04

Exam item: Which value of normalized RNA/DNA level with ligand (log10) has been reported for CCCAU in the records?
Marked response: 1.97
